# Recorded conditions: in water, 318.15 K
Readout type: solubility (mole fraction)
The reply should be a number, written without any unit.

Exercise: Need solubility (mole fraction) of OC[C@@H](O)[C@@H](O[C@H]1O[C@H](CO)[C@@H](O)[C@H](O)[C@H]1O)[C@H](O)[C@@H](O)CO , thanks.
Solution: 0.111

----------
# Recorded conditions: in DMF, 308.15 K
Readout type: solubility (mole fraction)

Exercise: Need solubility (mole fraction) of OC[C@@H](O)[C@@H](O[C@H]1O[C@H](CO)[C@@H](O)[C@H](O)[C@H]1O)[C@H](O)[C@@H](O)CO , thanks.
Solution: 0.00922
